targetEntity: Voltage-gated inwardly rectifying potassium channel KCNH2 (Homo sapiens, UniProt Q12809)
Sequence (Q12809 whole entry): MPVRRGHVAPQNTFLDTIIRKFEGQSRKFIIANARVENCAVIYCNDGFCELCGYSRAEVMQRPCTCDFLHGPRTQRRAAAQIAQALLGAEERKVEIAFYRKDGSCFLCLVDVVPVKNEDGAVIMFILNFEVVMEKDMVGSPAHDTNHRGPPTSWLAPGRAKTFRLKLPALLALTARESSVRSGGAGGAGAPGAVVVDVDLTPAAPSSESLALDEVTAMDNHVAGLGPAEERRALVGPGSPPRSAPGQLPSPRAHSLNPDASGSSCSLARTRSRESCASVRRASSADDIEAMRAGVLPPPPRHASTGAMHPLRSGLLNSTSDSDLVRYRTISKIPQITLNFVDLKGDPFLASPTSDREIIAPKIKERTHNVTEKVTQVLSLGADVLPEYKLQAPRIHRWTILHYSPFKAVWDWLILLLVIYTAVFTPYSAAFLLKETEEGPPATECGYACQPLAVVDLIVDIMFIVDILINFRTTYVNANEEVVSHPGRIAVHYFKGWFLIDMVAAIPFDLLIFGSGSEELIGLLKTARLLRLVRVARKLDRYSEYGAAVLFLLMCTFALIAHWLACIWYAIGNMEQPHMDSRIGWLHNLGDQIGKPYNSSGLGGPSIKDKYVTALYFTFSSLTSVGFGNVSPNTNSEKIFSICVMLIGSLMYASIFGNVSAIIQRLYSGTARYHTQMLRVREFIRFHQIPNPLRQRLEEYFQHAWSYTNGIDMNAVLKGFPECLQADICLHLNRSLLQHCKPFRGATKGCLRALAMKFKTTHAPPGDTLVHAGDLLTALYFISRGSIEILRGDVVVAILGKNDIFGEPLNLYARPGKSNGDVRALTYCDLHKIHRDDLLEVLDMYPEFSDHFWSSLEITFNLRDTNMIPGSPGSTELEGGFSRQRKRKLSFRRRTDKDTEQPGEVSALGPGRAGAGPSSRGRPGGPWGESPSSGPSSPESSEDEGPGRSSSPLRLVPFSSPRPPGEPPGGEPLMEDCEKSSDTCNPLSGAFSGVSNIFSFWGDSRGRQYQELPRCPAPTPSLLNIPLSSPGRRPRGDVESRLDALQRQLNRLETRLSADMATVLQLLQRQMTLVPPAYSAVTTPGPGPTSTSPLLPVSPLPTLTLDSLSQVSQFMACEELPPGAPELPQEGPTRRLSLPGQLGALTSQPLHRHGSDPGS
runDescription: Displacement of [35S]-MK499 binding to human ERG expressed in HEK293 cells incubated for 2 hrs by liquid scintillation counting method
pIC50: −log10 of the molar value.
Give yes when the value for pIC50 is at least 5. Give no when it is less.

moleculeSmiles	classAssignment
C[C@@H](NC(=O)c1ccc(Cl)cc1)c1ccc2c(c1)OCCN2C(=O)c1cccc(Cl)c1	yes
C[C@@H](NC(=O)c1ccc(Cl)cc1)c1ccc2c(c1)CCCN2C(=O)c1cccc(Cl)c1	yes
C[C@@H](NC(=O)c1ccc(F)cc1)c1ccc2c(n1)CCCN2c1ccnc(C(F)(F)F)n1	no
C[C@H](NC(=O)c1ccc(Cl)cc1)c1ccc2c(c1)CCCN2C(=O)c1cccc(Cl)c1	yes
C[C@@H](NC(=O)c1ccc(F)cc1)c1ccc2c(n1)CCCN2C(=O)OC1CC1	no
